Molecular target: recombinant rat FAAH (rFAAH) (Rattus norvegicus)
Construct: expressed in transfected cells; host or cells: HEK293-rFAAH cells (homogenate supernatant)
Test: FAAH enzyme activity assay (AEA hydrolysis, HPLC-MS/MS)
Type: biochemical
Details: as stated in abstract; read-out: IC50 (FAAH inhibition)

item smiles: O=C(NCCc1ccccc1)n1cc(C(F)(F)F)c(=O)[nH]c1=O
IC50, nM: 21

item smiles: O=C(NCc1ccc(-c2ccccc2)cc1)n1ccc(=O)[nH]c1=O
IC50, nM: 53

* * *

Molecular target: recombinant rat FAAH (rFAAH) (Rattus norvegicus, UniProt P97612)
Construct: expressed in transfected cells; host or cells: HEK293-rFAAH cells (homogenate supernatant)
Assay: FAAH enzyme activity assay (AEA hydrolysis, HPLC-MS/MS)
Format: biochemical
Settings: compared with parent compound 1
measured metric: fold decrease in FAAH inhibitory potency vs. compound 1

molecule: CCCCCCNC(=O)n1ccc(=O)n(C)c1=O [Compound 4]
assay target: recombinant rat FAAH (rFAAH) (Rattus norvegicus, UniProt P97612)
measured result: 8- to 10 fold
//
molecule: O=C(NCCc1ccccc1)n1ccc(=O)[nH]c1=O [Compound 7]
assay target: recombinant rat FAAH (rFAAH) (Rattus norvegicus, UniProt P97612)
measured result: 3 fold
//
molecule: CCCCCCNC(=O)n1c(C)cc(=O)[nH]c1=O [Compound 6]
assay target: recombinant rat FAAH (rFAAH) (Rattus norvegicus, UniProt P97612)
measured result: 8- to 10 fold
//
molecule: CCCCCCNC(=O)n1cc(C)c(=O)[nH]c1=O [Compound 5]
assay target: recombinant rat FAAH (rFAAH) (Rattus norvegicus, UniProt P97612)
measured result: 2- to 3 fold

* * *

The following molecules are shown together with reported pIC50 values.
Biological target: recombinant rat FAAH (rFAAH) (Rattus norvegicus, UniProt P97612)
Construct: expressed in transfected cells; host or cells: HEK293-rFAAH cells (homogenate supernatant)
Sequence (P97612 1-579): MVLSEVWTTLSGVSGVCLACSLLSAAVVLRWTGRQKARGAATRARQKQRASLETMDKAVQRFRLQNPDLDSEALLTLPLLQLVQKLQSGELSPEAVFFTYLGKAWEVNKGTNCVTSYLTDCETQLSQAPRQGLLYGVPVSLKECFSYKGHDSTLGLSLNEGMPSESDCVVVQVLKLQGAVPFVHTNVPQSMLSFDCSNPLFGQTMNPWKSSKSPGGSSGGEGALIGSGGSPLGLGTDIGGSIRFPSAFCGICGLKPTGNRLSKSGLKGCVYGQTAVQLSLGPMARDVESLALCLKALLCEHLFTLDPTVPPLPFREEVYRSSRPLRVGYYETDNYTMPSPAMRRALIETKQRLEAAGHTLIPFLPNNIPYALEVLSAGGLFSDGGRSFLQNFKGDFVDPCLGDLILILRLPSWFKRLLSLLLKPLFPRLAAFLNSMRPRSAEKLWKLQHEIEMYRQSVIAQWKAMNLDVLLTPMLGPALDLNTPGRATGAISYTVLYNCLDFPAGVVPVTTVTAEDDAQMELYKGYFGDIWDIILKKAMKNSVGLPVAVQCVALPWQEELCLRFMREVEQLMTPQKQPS
Experiment: FAAH enzyme activity assay (AEA hydrolysis, HPLC-MS/MS)
Type: biochemical
Conditions: rFAAH protein 30 μg from HEK293-rFAAH cells, 25 μM anandamide, 37 °C, 30 min, Tris buffer pH 8.0; read-out: IC50 of FAAH Inhibition
pIC50: −log10 of the molar value.
measured metric: pIC50

item smiles: CCCCCCNC(=O)N1CCCNC1=O
measured metric: pIC50
value modifier: <
measured result: 5.00

item smiles: CCCCCCNC(=O)N1CCC(=O)NC1=O
measured metric: pIC50
value modifier: <
measured result: 5.00

item smiles: Cc1cn(C(=O)NCCc2ccccc2)c(=O)[nH]c1=O
measured metric: pIC50
value modifier: =
measured result: 5.97

item smiles: O=C(NCCc1ccccc1)n1cc(O)c(=O)[nH]c1=O
measured metric: pIC50
value modifier: =
measured result: 6.27

item smiles: O=C(Nc1cn(C(=O)NCCc2ccccc2)c(=O)[nH]c1=O)OCc1ccccc1
measured metric: pIC50
value modifier: =
measured result: 6.92

item smiles: CCCCCCCn1cc(F)c(=O)[nH]c1=O
measured metric: pIC50
value modifier: <
measured result: 4.00

item smiles: CCCCCCNC(=O)n1cc(C)c(=O)[nH]c1=O
measured metric: pIC50
value modifier: =
measured result: 6.60

item smiles: O=C(NCCc1ccccc1)n1ccc(=O)[nH]c1=O
measured metric: pIC50
value modifier: =
measured result: 6.52

item smiles: CCCCCCNC(=O)n1ccc(=O)[nH]c1=O
measured metric: pIC50
value modifier: =
measured result: 6.96

item smiles: CCCCCCNC(=O)Cn1cc(F)c(=O)[nH]c1=O
measured metric: pIC50
value modifier: <
measured result: 4.00

* * *

Molecular target: recombinant rat FAAH (rFAAH) (Rattus norvegicus, UniProt P97612)
Construct: expressed in transfected cells; host or cells: HEK293-rFAAH cells (homogenate supernatant)
Sequence (P97612 1-579): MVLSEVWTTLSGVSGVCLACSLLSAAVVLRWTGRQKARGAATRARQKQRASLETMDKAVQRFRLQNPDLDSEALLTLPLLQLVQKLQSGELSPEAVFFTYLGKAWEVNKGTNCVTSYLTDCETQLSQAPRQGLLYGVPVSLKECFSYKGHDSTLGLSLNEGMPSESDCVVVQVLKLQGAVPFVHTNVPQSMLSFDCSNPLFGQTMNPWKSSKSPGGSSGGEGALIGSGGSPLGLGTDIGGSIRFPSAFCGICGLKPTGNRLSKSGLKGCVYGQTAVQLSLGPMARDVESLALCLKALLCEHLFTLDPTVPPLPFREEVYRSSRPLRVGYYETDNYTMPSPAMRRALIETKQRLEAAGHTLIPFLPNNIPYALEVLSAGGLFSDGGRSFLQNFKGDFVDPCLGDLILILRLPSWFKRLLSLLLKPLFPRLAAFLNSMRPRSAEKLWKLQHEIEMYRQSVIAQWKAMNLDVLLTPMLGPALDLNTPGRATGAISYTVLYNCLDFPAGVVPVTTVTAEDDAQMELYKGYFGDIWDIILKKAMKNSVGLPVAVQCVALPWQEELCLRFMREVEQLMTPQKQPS
Test: FAAH enzyme activity assay (AEA hydrolysis, HPLC-MS/MS)
Format: biochemical
Settings: rFAAH protein 30 μg from HEK293-rFAAH cells, 25 μM anandamide, 37 °C, 30 min, Tris buffer pH 8.0; read-out: IC50 of FAAH Inhibition
The following compounds are shown together with reported IC50 values.
measured metric: IC50 (µM)

item smiles: O=C(NCc1ccc(-c2ccccc2)cc1)n1ccc(=O)[nH]c1=O
measured metric: IC50
unit abbrev: µM
value modifier: =
measured result: 0.053
--
item smiles: O=C(NCc1ccc(-c2ccccc2)cc1)n1cc(F)c(=O)[nH]c1=O
measured metric: IC50
unit abbrev: µM
value modifier: =
measured result: 0.1
--
item smiles: CCCCCCCn1ccc(=O)[nH]c1=O
measured metric: IC50
unit abbrev: µM
value modifier: >
measured result: 100
--
item smiles: O=C(NCCc1ccccc1)n1cc(C(F)(F)F)c(=O)[nH]c1=O
measured metric: IC50
unit abbrev: µM
value modifier: =
measured result: 0.021
--
item smiles: CCCCCCNC(=O)n1c(C)cc(=O)[nH]c1=O
measured metric: IC50
unit abbrev: µM
value modifier: =
measured result: 1.27
